Target or system Glycogen synthase kinase-3 alpha (Homo sapiens, UniProt P49840); metric IC50; compiled from varied reports.
experimental endpoint: IC50 (µM)

1. CC(C)(C)c1cc(NC(=O)Nc2ccc(Oc3ccnc(Nc4ccc5[nH]ncc5c4)c3)c3ccccc23)n(-c2cccc(OCCN3CCOCC3)c2)n1
2. COc1cccc(Nc2cc(Oc3ccc(NC(=O)Nc4cc(C(C)(C)C)cc(P(C)(C)=O)c4OC)c4ccccc34)ccn2)c1
3. COc1c(NC(=O)Nc2ccc(Oc3ccnc(Nc4ccc(C(=O)O)cc4)c3)c3ccccc23)cc(C(C)(C)C)cc1NS(C)(=O)=O
Let's sort these by IC50, smallest first. Go ahead? // rank by listing labels in the order requested
3, 1, 2

---

Dear all, I have gathered published pIC50 values for Glycogen synthase kinase-3 alpha (Homo sapiens, UniProt P49840); the list follows.
pIC50: −log10 of the molar value.

Below, each entry is followed by its recorded pIC50 result.
COc1cc(Nc2cc(Oc3ccc(NC(=O)Nc4cc(C(C)(C)C)cc(NS(C)(=O)=O)c4OC)c4ccccc34)ccn2)ccc1C(=O)NCC(C)(C)N1CCOCC1 < 4.92
CN1CC(=O)NCCOc2cccc(c2)Nc2ncnc(n2)-c2ccnc(c2)C1 > 8.00
COc1c(CNC(C)=O)cc(C(C)(C)C)cc1NC(=O)Nc1ccc(Oc2ccnc(Nc3ccccc3)c2)c2ccccc12 < 4.93

Noted pIC50 for Cc1cc(Nc2nccc(Oc3ccc(NC(=O)Nc4cc(C(C)C)nn4-c4cccc(OCCN5CCOCC5)c4)c4ccccc34)n2)cc2cn[nH]c12 , tested on Glycogen synthase kinase-3 alpha (Homo sapiens, UniProt P49840): < 4.87

---

Reported IC50 against Glycogen synthase kinase-3 alpha (Homo sapiens), gathered from multiple publications, appears below.

compound	tgt	IC50
COc1cc(Nc2cc(Oc3ccc(NC(=O)Nc4cc(C(C)(C)C)cc(NS(C)(=O)=O)c4OC)c4ccccc34)ccn2)ccc1C(=O)NCCN1CCSCC1	Glycogen synthase kinase-3 alpha (Homo sapiens)	> 12.1 µM

COc1cccc(Nc2cc(Oc3ccc(NC(=O)Nc4cc(C(C)(C)C)cc(CC(=O)N5CCOCC5)c4OC)c4ccccc34)ccn2)c1 yielded IC50 of > 14.5 µM

Reported IC50 of Cc1ccc(-n2nc(C(C)(C)C)cc2NC(=O)Nc2ccc(Oc3ccnc(Nc4cccc5[nH]ccc45)n3)c3ccccc23)cc1 : > 16.1 µM

IC50 reading for C[C@H]1NCCCc2cccc(c2)-c2ncnc(n2)Nc2ccccc2CNC1=O : 0.1 to 1 µM

The compound identified as COc1cc(Nc2cc(Oc3ccc(NC(=O)Nc4cc(C(C)(C)C)cc(C(=O)NCCN5CCOCC5)c4OC)c4ccccc34)ccn2)cc(C(N)=O)c1 registered its IC50 at 1.61 µM

O=C1CNCc2cccc(c2)Nc2ncnc(n2)-c2cccc(c2)CCCN1 has a reported IC50 of 0.1 to 1 µM

Per the records, this compound ( COc1ccc(-n2nc(C3CCOC3)cc2NC(=O)Nc2ccc(Oc3ccnc(Nc4ccc5[nH]ncc5c4)n3)c3ccccc23)cc1 (centres unmarked) ) has IC50 equal to 0.837 µM

Lab note: COc1ccc(-n2nc(C(C)(C)C)cc2NC(=O)Nc2ccc(Oc3ccnc(Nc4cc(C)c5[nH]ncc5c4)n3)c3ccccc23)cc1 gave IC50 of > 1.53 µM

So for O=C1NCCCc2cccc(c2)-c2ncnc(n2)Nc2cccc(c2)CN[C@H]1Cc1ccccc1 , the logged IC50 turned out to be 0.01 to 0.1 µM

Sample COc1c(NC(=O)Nc2ccc(Oc3ccnc(Nc4ccccc4)c3)c3ccccc23)cc(C(C)(C)C)cc1C(=O)NCCN1CCC1 ; IC50 observed: 3.32 µM

IC50 for O=C1COc2cccc(c2)Nc2ncnc(n2)-c2ccnc(c2)CCCN2CCN1CC2 is 0.01 to 0.1 µM
